# SYSTEM TESTED: UniProt P41146
# Sequence (P41146 whole entry): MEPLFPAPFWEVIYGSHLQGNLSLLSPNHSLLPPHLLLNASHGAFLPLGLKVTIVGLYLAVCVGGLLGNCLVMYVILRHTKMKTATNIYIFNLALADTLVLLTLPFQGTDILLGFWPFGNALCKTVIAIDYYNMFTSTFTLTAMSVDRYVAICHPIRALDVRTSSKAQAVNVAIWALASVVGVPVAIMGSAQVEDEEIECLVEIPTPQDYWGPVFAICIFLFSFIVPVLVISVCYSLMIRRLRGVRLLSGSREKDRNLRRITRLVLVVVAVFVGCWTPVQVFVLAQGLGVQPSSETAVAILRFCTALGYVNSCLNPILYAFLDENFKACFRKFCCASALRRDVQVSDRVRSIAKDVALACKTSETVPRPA
Listed here: items and their measured pKi.
// scale note: pKi = -log10(conc_M); give the bare number

Field: example entries. Status: answers known.
{"columns": ["COMPOUND", "OBS VALUE"],
 "data": [
  ["OC1CC2CCC(C1)N2C(c1ccccc1Cl)c1ccccc1Cl (stereo in doubt; 12a)", 5.96],
  ["OCC1(c2ccccc2)CC2CCC(C1)N2C(c1ccccc1Cl)c1ccccc1Cl (configuration not stated)", 8.22]
]}

Query: Give the value of pKi reported for the following: CNC(=O)C1(c2ccccc2)CC2CCC(C1)N2C(c1ccccc1Cl)c1ccccc1Cl (configuration not stated)
Reply: 8.31

Query: Give the value of pKi reported for the following: OC1(c2cncs2)CC2CCC(C1)N2C(c1ccccc1Cl)c1ccccc1Cl (stereo in doubt; 12b)
Reply: 5.52

Query: Give the value of pKi reported for the following: `C[C@H]1CN(C(c2ccccc2)c2ccccc2)CC[C@@]1(O)c1ccccc1`
Reply: 5.80

Query: Give the value of pKi reported for the following: Cc1ccc(C(c2ccccc2Cl)N2C3CCC2CC(O)(C2CCCC2)C3)c(Cl)c1 (configuration not stated)
Reply: 8.72

Query: Give the value of pKi reported for the following: Clc1ccccc1C(c1ccccc1Cl)N1C2CCC1CC(c1ccccc1)(c1nc[nH]n1)C2 (configuration not stated)
Reply: 8.28

Query: Give the value of pKi reported for the following: Cc1ccc(C(c2ccccc2Cl)N2C3CCC2CC(O)(C2CCNC2=O)C3)c(Cl)c1 (configuration not stated)
Reply: 8.44

Query: Give the value of pKi reported for the following: NC(=O)C1(c2ccc(Br)cc2)CC2CCC(C1)N2C(c1ccccc1Cl)c1ccccc1Cl (configuration not stated)
Reply: 7.40

Query: Give the value of pKi reported for the following: Cc1ccnc(C2(O)CC3CCC(C2)N3C(c2ccccc2Cl)c2ccc(C)cc2Cl)c1 (configuration not stated)
Reply: 8.14

Origin of values: ChEMBL document CHEMBL1138606
